molecular target: NADPH oxidase 4 (Homo sapiens) (UniProt Q9NPH5); experiment: NOX4-dependent H2O2 signal modulators, primary screen, NOX inhibitor project, cell-based, HEK293-NOX4, tetracycline-induced, Amplex Red fluorescence (AID 1160); conditions: 45 min, higher = more signal, called active from +8 up or from −8 down
Sequence (Q9NPH5 whole entry, looked up): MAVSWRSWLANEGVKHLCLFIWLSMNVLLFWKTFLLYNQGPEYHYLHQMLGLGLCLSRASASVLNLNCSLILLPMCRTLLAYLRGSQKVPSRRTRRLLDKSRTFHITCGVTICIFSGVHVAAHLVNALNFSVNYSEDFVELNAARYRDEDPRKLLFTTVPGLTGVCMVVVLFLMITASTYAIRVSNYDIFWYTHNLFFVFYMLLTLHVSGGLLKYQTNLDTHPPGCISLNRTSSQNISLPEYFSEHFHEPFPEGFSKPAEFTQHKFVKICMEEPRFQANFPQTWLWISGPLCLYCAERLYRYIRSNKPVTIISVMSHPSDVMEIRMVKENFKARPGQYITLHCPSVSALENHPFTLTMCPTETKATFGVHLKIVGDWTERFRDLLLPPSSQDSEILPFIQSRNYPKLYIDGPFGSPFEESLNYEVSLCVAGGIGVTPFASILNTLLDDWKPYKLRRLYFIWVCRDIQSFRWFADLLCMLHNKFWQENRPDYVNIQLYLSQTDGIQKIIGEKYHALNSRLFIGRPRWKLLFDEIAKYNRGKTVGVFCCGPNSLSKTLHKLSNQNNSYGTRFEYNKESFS
Note to self: values exactly at -0.4 are Met. So z-score at or above -0.4 is Met, below is Not met.

In: Threshold query (z-score >= -0.4) on CCCC[C@@H]1C[C@H]1[C@@H](NC(=O)c1ccccc1)c1ccc(Cl)cc1
Out: Not met

In: Reported z-score at or above -0.4? CC(C)(C)OC(=O)CC[C@]1(C(=O)NCCN2CCOCC2)N=C(c2ccc(OCCCO)cc2)O[C@H]1c1ccccc1
Out: Met

In: Hello, I need to know if CC(=O)N1Cc2ccccc2C[C@]2(N=C(c3ccc(OCCCO)cc3)O[C@@H]2c2ccccc2)C1=O has measured z-score not below -0.4. Thanks!
Out: Met

In: Can C=CCN1C(=O)[C@@]2(O[C@@H](CCO)[C@H]([Si](C)(C)c3ccc(OC)cc3)[C@H]2C)c2cc(N3C(=O)c4ccccc4Oc4ccccc43)ccc21 be said to have z-score at or above -0.4?
Out: Met

In: Textbook exercise: given the entry CC=CC(O)C1C=CC2C(=O)N(C)C(=O)C2N1N1CCCCC1 (configuration not stated) , state whether its z-score is greater than or equal to -0.4.
Out: Not met

In: Entry COCCCNC(=O)[C@@H]1c2ccccc2C(=O)N(Cc2ccccc2C(F)(F)F)[C@H]1c1ccc(CO)cc1 : is its z-score no less than -0.4?
Out: Met

In: Determine whether this molecule has z-score no lower than -0.4: CC(C)N1C(=O)[C@@]2(c3ccc([N+](=O)[O-])cc3)CC(=O)N(C3CCCCC3)[C@@H]2c2ccc(CO)cc21
Out: Met

The values you see were collected from PubChem BioAssay.
